# assayProtocol: Metabolic stability, pooled human liver microsome incubations
# cond: pHLM, 9 min
propertyName: % parent compound remaining, Average
Please make sure the unit comes right after the number.

{"compound": "COC(=O)[C@@H](NC(=O)c1nn(Cc2ccc(F)cc2)c2ccccc12)C(C)(C)C [(S)-MDMB-FUBINACA (6)]", "% parent compound remaining, Average": "55.8%"}
{"compound": "COC(=O)[C@@H](NC(=O)c1cn(CCCCCF)c2ccccc12)C(C)(C)C [(S)-5F-MDMB-PICA (3)]", "% parent compound remaining, Average": "49.2%"}
{"compound": "C=CCCCn1cc(C(=O)N[C@@H](C(=O)OC)C(C)(C)C)c2ccccc21 [(R)-MDMB-4en-PICA (12)]", "% parent compound remaining, Average": "31.7%"}

Consider now this further compound.
Prompt: Field request: % parent compound remaining, Average | item: COC(=O)C(NC(=O)c1nn(CCCCCF)c2ccccc12)C(C)C (stereo in doubt) [(R)-5F-AMB-PINACA (10)]
Completion: 38.0%

----------
# assayProtocol: Metabolic stability, pooled human liver microsome incubations
# cond: pHLM, 15 min
Reported % parent compound remaining, Average by item:
Respond with the bare value in %.

For orientation, consider the following solved cases.
{"compound": "COC(=O)[C@@H](NC(=O)c1nn(CCCCCF)c2ccccc12)C(C)C [(S)-5F-AMB-PINACA (10)]", "propertyName": "% parent compound remaining, Average", "unitInfo": "%", "endpointValue": 0.0}
{"compound": "COC(=O)C(NC(=O)c1nn(Cc2ccc(F)cc2)c2ccccc12)C(C)C (stereo in doubt) [(R)-AMB-FUBINACA (1)]", "propertyName": "% parent compound remaining, Average", "unitInfo": "%", "endpointValue": 20.5}
{"compound": "COC(=O)[C@H](NC(=O)c1nn(Cc2ccc(F)cc2)c2ccccc12)C(C)(C)C [(R)-MDMB-FUBINACA (6)]", "propertyName": "% parent compound remaining, Average", "unitInfo": "%", "endpointValue": 57.2}
{"compound": "CC(C)[C@@H](NC(=O)c1nn(Cc2ccc(F)cc2)c2ccccc12)C(N)=O [(R)-AB-FUBINACA (8)]", "propertyName": "% parent compound remaining, Average", "unitInfo": "%", "endpointValue": 82.9}
{"compound": "COC(=O)[C@@H](NC(=O)c1cn(CCCCCF)c2ccccc12)C(C)(C)C [(S)-5F-MDMB-PICA (3)]", "propertyName": "% parent compound remaining, Average", "unitInfo": "%", "endpointValue": 32.1}

Prompt: Tell me the measured % parent compound remaining, Average of C=CCCCn1cc(C(=O)N[C@@H](C(=O)OC)C(C)(C)C)c2ccccc21 [(R)-MDMB-4en-PICA (12)] , please.
Completion: 13.8

Prompt: # input compound: CC(C)[C@H](NC(=O)c1nn(Cc2ccc(F)cc2)c2ccccc12)C(N)=O [(S)-AB-FUBINACA (8)] ; wanted: its % parent compound remaining, Average
Completion: 84.2

----------
# assayProtocol: Metabolic stability, pooled human liver microsome incubations
# cond: human, microsomes, pH 7.4, Intrinsic clearance, CLint, pHLM, alternative microsomal scaling factor 45 mg microsomal protein per gram liver
propertyName: CLint scaled at 0.5 µM (mL/min/kg)
Expressed in mL/min/kg, but write only the number.

Use these answered entries as a reference point.
{"compound": "COC(=O)[C@H](NC(=O)c1nn(Cc2ccc(F)cc2)c2ccccc12)C(C)(C)C [(R)-MDMB-FUBINACA (6)]", "CLint scaled at 0.5 µM, mL/min/kg": 81.8}
{"compound": "COC(=O)[C@@H](NC(=O)c1nn(Cc2ccc(F)cc2)c2ccccc12)C(C)C [(S)-AMB-FUBINACA (1)]", "CLint scaled at 0.5 µM, mL/min/kg": 2520}
{"compound": "COC(=O)[C@@H](NC(=O)c1cn(CC2CCCCC2)c2ccccc12)C(C)C [(S)-AMB-CHMICA (9)]", "CLint scaled at 0.5 µM, mL/min/kg": 397}

Next compound, CLint scaled at 0.5 µM to be filled in.
Prompt: Look at this compound and give its reported CLint scaled at 0.5 µM. C=CCCCn1cc(C(=O)N[C@H](C(=O)OC)C(C)C)c2ccccc21 [(S)-AMB-4en-PICA (7)]
Completion: 273

----------
# Tested on: pooled human cryopreserved hepatocytes (pHHeps)
# assayProtocol: Metabolic stability, pooled human cryopreserved hepatocyte incubations
# cond: pHHeps, 9 min
Reported % parent compound remaining, Average values for the following molecules.
Respond with the bare value in %.

# count of solved cases: 3
{"molecule": "COC(=O)C(NC(=O)c1cn(CC2CCCCC2)c2ccccc12)C(C)C (stereo in doubt) [(R)-AMB-CHMICA (9)]", "assayTarget": "pooled human cryopreserved hepatocytes (pHHeps)", "unitInfo": "%", "% parent compound remaining, Average": 45.1}
{"molecule": "COC(=O)[C@@H](NC(=O)c1nn(Cc2ccc(F)cc2)c2ccccc12)C(C)(C)C [(S)-MDMB-FUBINACA (6)]", "assayTarget": "pooled human cryopreserved hepatocytes (pHHeps)", "unitInfo": "%", "% parent compound remaining, Average": 80.1}
{"molecule": "C=CCCCn1cc(C(=O)N[C@@H](C(=O)OC)C(C)(C)C)c2ccccc21 [(R)-MDMB-4en-PICA (12)]", "assayTarget": "pooled human cryopreserved hepatocytes (pHHeps)", "unitInfo": "%", "% parent compound remaining, Average": 83.7}

Prompt: Give its % parent compound remaining, Average value. Item: COC(=O)[C@@H](NC(=O)c1nn(CCCCCF)c2ccccc12)C(C)(C)C [(S)-5F-MDMB-PINACA (2)]
Completion: 57.5

Prompt: Give the measured % parent compound remaining, Average of COC(=O)[C@H](NC(=O)c1nn(CCCCCF)c2ccccc12)C(C)(C)C [(R)-5F-MDMB-PINACA (2)] .
Completion: 55.7

Prompt: Return reported % parent compound remaining, Average; argument: C=CCCCn1nc(C(=O)N[C@H](C(=O)OC)C(C)(C)C)c2ccccc21 [(S)-MDMB-4en-PINACA (5)]
Completion: 56.7

----------
# assayProtocol: Short-term plasma stability with and without esterase inhibitors
# cond: human, plasma, pH 7.4, Parent Compound Remaining (%), Esterase Inhibitors, 3 h, 37 °C, pH 7.4, BNPP and PMSF 500 µM each
propertyName: remaining at 3 h, 5 µM (%)
Expressed in %, but write only the number.

Prompt: If you can, please state the reported remaining at 3 h, 5 µM value of C=CCCCn1nc(C(=O)N[C@H](C(=O)OC)C(C)(C)C)c2ccccc21 [(S)-MDMB-4en-PINACA (5)] .
Completion: 89

----------
# Test system: pooled human cryopreserved hepatocytes (pHHeps)
# assayProtocol: Metabolic stability, pooled human cryopreserved hepatocyte incubations
# cond: pHHeps, 45 min
Each entry below lists one item and its recorded % parent compound remaining, Average value.
Answer in %, number only, no unit symbol.

{"compound": "CC(C)[C@H](NC(=O)c1nn(Cc2ccc(F)cc2)c2ccccc12)C(N)=O [(S)-AB-FUBINACA (8)]", "unitInfo": "%", "% parent compound remaining, Average": 69.5}
{"compound": "CC(C)[C@@H](NC(=O)c1nn(Cc2ccc(F)cc2)c2ccccc12)C(N)=O [(R)-AB-FUBINACA (8)]", "unitInfo": "%", "% parent compound remaining, Average": 82.9}
{"compound": "COC(=O)[C@@H](NC(=O)c1nn(CCCCF)c2ccccc12)C(C)(C)C [(S)-4F-MDMB-BINACA (4)]", "unitInfo": "%", "% parent compound remaining, Average": 12.5}
{"compound": "COC(=O)[C@H](NC(=O)c1nn(CCCCCF)c2ccccc12)C(C)(C)C [(R)-5F-MDMB-PINACA (2)]", "unitInfo": "%", "% parent compound remaining, Average": 17.9}

Prompt: So what's the measured % parent compound remaining, Average for this one? CCOc1ccc2ccc(=O)oc2c1 [7-ethoxycoumarin, reference compound]
Completion: 40.7

Prompt: Need % parent compound remaining, Average of COC(=O)[C@H](NC(=O)c1cn(CCCCCF)c2ccccc12)C(C)(C)C [(R)-5F-MDMB-PICA (3)] , thanks.
Completion: 51.8

Prompt: Fill in: % parent compound remaining, Average of COC(=O)[C@H](NC(=O)c1nn(CCCCF)c2ccccc12)C(C)(C)C [(R)-4F-MDMB-BINACA (4)] is ___
Completion: 48.5

Prompt: % parent compound remaining, Average lookup needed for C=CCCCn1cc(C(=O)N[C@H](C(=O)OC)C(C)(C)C)c2ccccc21 [(S)-MDMB-4en-PICA (12)] , thanks.
Completion: 34.2

----------
% parent compound remaining, Average values by entry
# System: pooled human cryopreserved hepatocytes (pHHeps)
# assayProtocol: Metabolic stability, pooled human cryopreserved hepatocyte incubations
# cond: pHHeps, 60 min
Please reply with the bare figure in % and do not write the unit itself.

{"molecule": "COC(=O)C(NC(=O)c1cn(CC2CCCCC2)c2ccccc12)C(C)C (stereo in doubt) [(R)-AMB-CHMICA (9)]", "assayTarget": "pooled human cryopreserved hepatocytes (pHHeps)", "propertyName": "% parent compound remaining, Average", "unitInfo": "%", "endpointValue": 3.2}
{"molecule": "COC(=O)C(NC(=O)c1nn(Cc2ccc(F)cc2)c2ccccc12)C(C)C (stereo in doubt) [(R)-AMB-FUBINACA (1)]", "assayTarget": "pooled human cryopreserved hepatocytes (pHHeps)", "propertyName": "% parent compound remaining, Average", "unitInfo": "%", "endpointValue": 0.8}
{"molecule": "C=CCCCn1cc(C(=O)N[C@@H](C(=O)OC)C(C)C)c2ccccc21 [(R)-AMB-4en-PICA (7)]", "assayTarget": "pooled human cryopreserved hepatocytes (pHHeps)", "propertyName": "% parent compound remaining, Average", "unitInfo": "%", "endpointValue": 0.6}

As a next step, examine the molecule that follows.
Prompt: Which measured % parent compound remaining, Average value corresponds to COC(=O)[C@@H](NC(=O)c1nn(Cc2ccc(F)cc2)c2ccccc12)C(C)(C)C [(S)-MDMB-FUBINACA (6)] ?
Completion: 9.1
